TARGET: 5-hydroxytryptamine receptor 2C (Rattus norvegicus, UniProt P08909)
Sequence (P08909 whole entry): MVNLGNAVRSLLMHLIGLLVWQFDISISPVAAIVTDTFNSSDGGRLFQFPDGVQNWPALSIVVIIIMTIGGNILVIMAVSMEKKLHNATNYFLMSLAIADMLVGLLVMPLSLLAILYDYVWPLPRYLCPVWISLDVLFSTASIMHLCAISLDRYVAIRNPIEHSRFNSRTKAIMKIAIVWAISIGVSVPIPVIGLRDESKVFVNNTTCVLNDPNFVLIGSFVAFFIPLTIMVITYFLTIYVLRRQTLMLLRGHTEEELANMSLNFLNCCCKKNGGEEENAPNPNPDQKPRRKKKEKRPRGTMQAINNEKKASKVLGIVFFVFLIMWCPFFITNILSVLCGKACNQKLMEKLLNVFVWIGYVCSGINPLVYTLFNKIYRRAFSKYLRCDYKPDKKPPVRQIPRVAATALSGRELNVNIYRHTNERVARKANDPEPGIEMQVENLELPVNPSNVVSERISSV
METHOD: Binding affinity against 5-hydroxytryptamine 2C receptor of rat cortex.
READOUT_LABEL: pKi
Reminder that pKi is minus the log10 of a molar concentration.

Enquiry: I have this molecule here, CN1CCN(c2nc3ccccc3c3c2CCc2sccc2-3)CC1 , and I need its recorded pKi.
Return: 3.38

----------
TARGET: 5-hydroxytryptamine receptor 1B (Rattus norvegicus, UniProt P28564)
Sequence (P28564 whole entry): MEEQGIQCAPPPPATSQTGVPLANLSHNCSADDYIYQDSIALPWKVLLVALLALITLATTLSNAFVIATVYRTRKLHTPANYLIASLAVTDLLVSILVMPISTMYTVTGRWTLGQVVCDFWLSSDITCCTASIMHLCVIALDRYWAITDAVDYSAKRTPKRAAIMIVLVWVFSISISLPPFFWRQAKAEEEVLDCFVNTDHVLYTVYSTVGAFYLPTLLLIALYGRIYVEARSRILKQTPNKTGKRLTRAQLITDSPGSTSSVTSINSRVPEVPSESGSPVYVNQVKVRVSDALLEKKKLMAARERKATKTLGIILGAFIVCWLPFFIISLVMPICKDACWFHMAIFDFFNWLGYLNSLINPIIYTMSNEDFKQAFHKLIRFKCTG
METHOD: Binding affinity against 5-hydroxytryptamine 1B receptor of rat striatum
Type: tissue-based
READOUT_LABEL: Ki (µM)
Give just the number in µM; leave the unit off.

>>> observed_value("CN1CCN(c2cc3c4c(cccc4n2)-c2ccccc2-3)CC1")
0.64

Now look at this entry.
Enquiry: Request body: readout Ki, system 5-hydroxytryptamine receptor 1B (Rattus norvegicus, UniProt P28564), query CN1CCN(c2nc3ccccc3c(-c3ccccc3)c2COC(=O)c2ccccc2)CC1 . Return the value.
Return: 7.6
